- test.target: recombinant human GBA (beta-glucocerebrosidase) (Homo sapiens, UniProt P04062)
- Sequence (P04062 40-536): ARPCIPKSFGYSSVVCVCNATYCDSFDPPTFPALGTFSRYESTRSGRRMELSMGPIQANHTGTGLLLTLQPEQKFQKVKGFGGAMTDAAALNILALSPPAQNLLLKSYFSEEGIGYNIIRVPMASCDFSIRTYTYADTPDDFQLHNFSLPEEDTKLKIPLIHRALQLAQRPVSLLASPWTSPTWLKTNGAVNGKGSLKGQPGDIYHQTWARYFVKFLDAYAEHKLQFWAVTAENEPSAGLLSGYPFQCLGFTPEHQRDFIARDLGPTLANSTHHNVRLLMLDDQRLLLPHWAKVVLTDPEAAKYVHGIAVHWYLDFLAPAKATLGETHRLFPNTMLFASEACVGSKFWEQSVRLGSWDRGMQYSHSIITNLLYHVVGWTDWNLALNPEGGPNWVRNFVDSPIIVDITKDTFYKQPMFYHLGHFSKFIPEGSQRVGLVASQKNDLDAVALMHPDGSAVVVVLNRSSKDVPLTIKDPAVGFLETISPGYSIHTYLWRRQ
- measurement.description: Beta-glucocerebrosidase (GBA, glucosylceramidase) assay (4-methylumbelliferyl-beta-D-pyranoside substrate, fluorescence)
Record form. Attribute: pIC50. Fill in for each entry.
Give bare numbers, as −log10 of the molar value.

[[record]]
compound = "O=[N+]([O-])c1cc(-c2ncc[nH]2)ccc1NCCc1ccc(CCN2C[C@H](O)[C@@H](O)[C@H](O)[C@H]2CO)cc1"
measured_number = 5.16

[[record]]
compound = "[N-]=[N+]=Nc1ccc(NCc2cc(CCN3C[C@H](O)[C@@H](O)[C@H](O)[C@H]3CO)cs2)c([N+](=O)[O-])c1"
measured_number = 6.09

[[record]]
compound = "OC[C@@H]1[C@@H](O)[C@H](O)[C@@H](O)CN1CCCCCCCCC1CNCCO1 (stereo partly shown)"
measured_number = 4.58


Query: I have this compound here, "Cc1nc(=O)c2cc(-c3ncccn3)ccc2n1CCCCCCN1C[C@H](O)[C@@H](O)[C@H](O)[C@H]1CO" , and I need its recorded pIC50.
Result: 4.67

====

- test.target: recombinant alpha-glucosidase II (murine full-length glucosidase II, alpha and beta subunits, Glu 2) (Mus musculus, UniProt Q8BHN3)
- Construct: made in house; host or cells: HEK-293T cells transduced with BacMam viruses (75% alpha, 25% beta); protein harvested from culture supernatant
- Sequence (O08795 15-521): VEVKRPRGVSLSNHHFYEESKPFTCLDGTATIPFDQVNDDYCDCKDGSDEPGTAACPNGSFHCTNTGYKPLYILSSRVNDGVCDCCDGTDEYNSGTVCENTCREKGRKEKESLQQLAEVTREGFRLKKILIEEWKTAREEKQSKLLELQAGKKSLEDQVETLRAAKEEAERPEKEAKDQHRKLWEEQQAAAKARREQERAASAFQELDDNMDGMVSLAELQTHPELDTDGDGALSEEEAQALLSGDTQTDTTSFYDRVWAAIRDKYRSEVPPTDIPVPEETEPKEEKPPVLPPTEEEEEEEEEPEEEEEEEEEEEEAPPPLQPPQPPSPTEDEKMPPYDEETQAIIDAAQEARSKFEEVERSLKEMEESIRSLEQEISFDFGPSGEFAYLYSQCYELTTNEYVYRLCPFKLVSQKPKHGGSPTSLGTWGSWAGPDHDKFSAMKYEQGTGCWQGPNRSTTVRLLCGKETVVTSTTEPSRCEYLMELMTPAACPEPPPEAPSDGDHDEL
- Sequence (Q8BHN3 33-944): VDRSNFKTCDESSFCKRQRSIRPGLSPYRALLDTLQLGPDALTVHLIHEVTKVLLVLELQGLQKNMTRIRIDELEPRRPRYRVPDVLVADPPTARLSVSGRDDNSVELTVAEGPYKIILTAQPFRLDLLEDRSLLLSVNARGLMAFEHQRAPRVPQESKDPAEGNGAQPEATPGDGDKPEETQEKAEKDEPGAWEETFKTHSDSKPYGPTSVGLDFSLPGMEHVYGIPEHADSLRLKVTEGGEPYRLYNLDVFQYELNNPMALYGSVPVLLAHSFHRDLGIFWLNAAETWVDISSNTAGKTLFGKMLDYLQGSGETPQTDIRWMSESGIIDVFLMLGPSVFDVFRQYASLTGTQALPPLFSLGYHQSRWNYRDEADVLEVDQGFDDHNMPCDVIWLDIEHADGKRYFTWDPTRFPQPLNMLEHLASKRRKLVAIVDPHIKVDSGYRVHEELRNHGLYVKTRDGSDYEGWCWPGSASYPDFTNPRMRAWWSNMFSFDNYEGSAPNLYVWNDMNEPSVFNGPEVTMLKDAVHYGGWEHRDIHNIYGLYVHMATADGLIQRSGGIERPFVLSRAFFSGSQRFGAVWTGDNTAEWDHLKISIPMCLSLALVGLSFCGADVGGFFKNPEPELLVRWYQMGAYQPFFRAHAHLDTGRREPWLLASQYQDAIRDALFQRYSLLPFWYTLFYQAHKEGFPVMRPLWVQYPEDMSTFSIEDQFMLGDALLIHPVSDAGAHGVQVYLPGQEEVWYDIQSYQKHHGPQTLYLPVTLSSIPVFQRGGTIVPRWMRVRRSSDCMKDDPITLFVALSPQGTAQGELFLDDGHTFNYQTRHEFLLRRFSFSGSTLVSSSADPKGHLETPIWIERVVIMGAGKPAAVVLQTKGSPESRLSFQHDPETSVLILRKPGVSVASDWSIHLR
- measurement.description: Alpha-glucosidase II assay (4-methylumbelliferyl-alpha-D-pyranoside substrate, fluorescence)
- Format: biochemical
- condition.set: Glucosidase 2; read-out: Glu2 IC50
measure.name: IC50 (µM)
Answers are plain numbers, in µM.

// solved cases for IC50 follow
[[record]]
molecule = "[N-]=[N+]=Nc1ccc(NCCCCCCN2C[C@H](O)[C@@H](O)[C@H](O)[C@H]2CO)c(C(=O)O)c1 [Compound 1297]"
measure_name = "IC50"
readout_units = "µM"
measured_number = 0.097

[[record]]
molecule = "OC[C@@H]1[C@@H](O)[C@H](O)[C@@H](O)CN1CCCCCCNc1ccc(-c2ncccn2)cc1Cl [Compound 1228]"
measure_name = "IC50"
readout_units = "µM"
measured_number = 0.011

[[record]]
molecule = "O=[N+]([O-])c1cc(Br)ccc1NCc1cccc(CN2C[C@H](O)[C@@H](O)[C@H](O)[C@H]2CO)c1 [Compound 1029]"
measure_name = "IC50"
readout_units = "µM"
measured_number = 20.4


# return IC50 for each item in the list
1. [N-]=[N+]=Nc1ccc(NCc2ccc(-c3ccc(CN4C[C@H](O)[C@@H](O)[C@H](O)[C@H]4CO)cc3)cc2)c([N+](=O)[O-])c1 [Compound 1166]
2. O=[N+]([O-])c1cc(-c2cccnn2)ccc1NCc1cccc(CN2C[C@H](O)[C@@H](O)[C@H](O)[C@H]2CO)c1 [Compound 1089]

Result:
[2.01, 20.7]

Query: Consider the molecule shown here: Cc1nc(=O)c2cc(-c3ncccn3)ccc2n1CCCCCCN1C[C@H](O)[C@@H](O)[C@H](O)[C@H]1CO [Compound 1246] What is its recorded IC50?
Result: 0.004

====

- test.target: rat maltase (partially purified alpha-glucosidase from intestinal rat powder)
- measurement.description: Intestinal alpha-glucosidase assay, maltose substrate (Glucose GO Kit)
Please go through the items and note down their IC50.
Give bare numbers, in nM.

// solved cases for IC50 follow
[[record]]
molecule = "CCCc1nc(-c2cc(Cl)cc(NCCc3ccc(CCN4C[C@H](O)[C@@H](O)[C@H](O)[C@H]4CO)cc3)c2)no1 [Compound 1123]"
measured_number = 440

[[record]]
molecule = "COc1cc(C#N)cc(NCCc2ccc(CCN3C[C@H](O)[C@@H](O)[C@H](O)[C@H]3CO)cc2)c1 [Compound 1133]"
measured_number = 97

[[record]]
molecule = "COCCc1ccc(CCCCCN2C[C@H](O)[C@@H](O)[C@H](O)[C@H]2CO)cc1 [Compound 1307]"
measured_number = 32

[[record]]
molecule = "Cc1cc(NCc2ccc(CN3C[C@H](O)[C@@H](O)[C@H](O)[C@H]3CO)cc2)cc(-n2nccn2)c1 [Compound 1316]"
measured_number = 6

[[record]]
molecule = "COc1cc(NCCCCCCN2C[C@H](O)[C@@H](O)[C@H](O)[C@H]2CO)cc(-c2ncc[nH]2)c1 [Compound 1219]"
measured_number = 10

[[record]]
molecule = "COCCCCCN(CCCNc1ccc(N=[N+]=[N-])cc1[N+](=O)[O-])CCCN1C[C@H](O)[C@@H](O)[C@H](O)[C@H]1CO [Compound 1221]"
measured_number = 233


Query: Fill in the blank: the reported IC50 of COc1cc(NCCc2ccc(CCN3C[C@H](O)[C@@H](O)[C@H](O)[C@H]3CO)cc2)cc(-c2ncccn2)c1 [Compound 1156] is ____.
Result: 287
